Values were extracted from paper PMC9911399.

# subject.of.test: T1, RBFOX1 RRM RbFoxmut (Fox-RRM*) (Homo sapiens, UniProt Q9NWB1 109-208, R118D;E147R;N151S;E152T)
# T1 sequence: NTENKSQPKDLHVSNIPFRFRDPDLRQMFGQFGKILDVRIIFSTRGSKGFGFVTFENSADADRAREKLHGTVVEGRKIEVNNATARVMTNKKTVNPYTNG
# protocol.details: EMSA; HiTS-Eq, 1 nM pool, 10 min; buffer printed only for the single-RNA assays: 10 mM Tris pH 7.5, 150 mM NaCl, 3.4 mM EDTA, 0.001% NP-40, 30 C
# condition.set: tags: His6 N-terminal (pET28a); label: 5' 32P
The full ranking holds about 16,000 sequences; the median of “ka relative to ugcaugu” is about 0.096, and the highest 2% start at about 0.35. The sample holds the highest values, similar sequences and a random draw of the others, so the mix is not that of the screen.
Catalogue of binding signal readings, one per entry.

Please list binding signal recorded for the binder CCGCAUG (DNA:RNA) RNA: GGGAGACCGGAAUUCAGAUUGUCCCCGCAUGUUAAAUCCCGUCGUAGCCACCA DNA 1: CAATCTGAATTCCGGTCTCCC DNA 2: TGGTGGCTACGACGGGATT 1.13 KA relative to UGCAUGU

Find the measured binding signal of CGCAUGU (DNA:RNA) RNA: GGGAGACCGGAAUUCAGAUUGUCCCGCAUGUUUAAAUCCCGUCGUAGCCACCA DNA 1: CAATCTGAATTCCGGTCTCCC DNA 2: TGGTGGCTACGACGGGATT and report it. 1.08 KA relative to UGCAUGU

State, in one line, measured binding signal of CGCAUUG (DNA:RNA) RNA: GGGAGACCGGAAUUCAGAUUGUCCCGCAUUGUUAAAUCCCGUCGUAGCCACCA DNA 1: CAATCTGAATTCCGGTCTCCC DNA 2: TGGTGGCTACGACGGGATT 0.179 KA relative to UGCAUGU

// fetch binding signal given entry GUUUUUU (DNA:RNA) RNA: GGGAGACCGGAAUUCAGAUUGUCCGUUUUUUUUAAAUCCCGUCGUAGCCACCA DNA 1: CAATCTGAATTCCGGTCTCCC DNA 2: TGGTGGCTACGACGGGATT 0.0932 KA relative to UGCAUGU
